A collection of molecules and their measured inhibition
# assay.explanation: growth inhibition, single agent or in combination, cell-based, chromothripsis tumors, cisplatin or BGB combos (AID 1671449);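 further: cells exposed for 96 hours; 0% = vehicle DMSO and 100% = killing by high DMSO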
# condition.context: LFS_MB_P medulloblastoma cells, measured here: combination with BGB IC40, at 0.05 µM
I only need the number, in %, no unit after it.

Reported inhibition, molecule CC(C)C(=O)SCCCCCCC(=O)Nc1nc(-c2ccccc2)cs1 : ____
-33.9

----------
# assay.explanation: drug combination growth inhibition, ovarian cancer – cell-based, oncology-focused library, rucaparib conditional, profiling panel (AID 1508598)
# condition.context: patient-derived ovarian cancer cells, CellTiter-Glo viability, 144 h; at 0.313 µM; OCI-P5x cells; with rucaparib 20 µM; 100% = cells with rucaparib alone
Activity calls are given as the source filed them.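 The calls were made as follows: active = normalized viability below 100% at a tested concentration; inactive = the rest.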
Parameter call: string, one of active, inactive

[[record]]
molecule = "COc1cccc2c1C(=O)c1c(O)c3c(c(O)c1C2=O)C[C@@](O)(C(=O)CO)C[C@H]3O[C@H]1C[C@H](N)[C@H](O)[C@H](C)O1"
category_label = "active"

[[record]]
molecule = "CC[C@]1(O)C[C@@H]2CN(CCc3c([nH]c4ccccc34)[C@@](C(=O)OC)(c3cc4c(cc3OC)N(C=O)[C@@H]3C45CCN4CC=C[C@](CC)([C@H]45)[C@H](OC(C)=O)[C@]3(O)C(=O)OC)C2)C1 (some centres not stated)"
category_label = "active"

[[record]]
molecule = "Cc1cc(C)c(-c2csc(NC(=O)c3ccccc3)n2)c(C)c1"
category_label = "inactive"

[[record]]
molecule = "CC(=O)O[C@@]1(C(C)=O)CC[C@H]2[C@@H]3C=C(C)C4=CC(=O)CC[C@]4(C)[C@@H]3CC[C@@]21C"
category_label = "active"

[[record]]
molecule = "Nc1nc(F)nc2c1ncn2[C@H]1O[C@H](CO)[C@@H](O)[C@@H]1O"
category_label = "active"

[[record]]
molecule = "CCc1c2c(nc3ccc(OC(=O)N4CCC(N5CCCCC5)CC4)cc13)-c1cc3c(c(=O)n1C2)COC(=O)[C@@]3(O)CC"
category_label = "active"


Please look at the following molecule next.
Test call for this molecule, please: COC1=C2C[C@H](C)C[C@@H](OC)[C@H](O)[C@H](C)/C=C(\C)[C@H](OC(N)=O)[C@@H](OC)/C=C/C=C(\C)C(=O)NC(=CC1=O)C2=O
active

----------
# assay.explanation: MELAS cybrid and Rieske KO viability enhancers – cell-based, MELAS cybrids, Rieske KO mouse fibroblasts, CellTiter-Glo, primary screen (AID 1508586);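 further: z relative to plate mean and SD of compound and empty wells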
# condition.context: Rieske KO mouse fibroblast survival, low glucose, CellTiter-Glo 72 h
Could you please mark met for values of z-score below 0.6 and not met for values at or above it?

Record excerpt, results attached:
[[record]]
compound = "CCOC(=O)C(CCc1ccccc1)NC(C)C(=O)N1Cc2cc(OC)c(OC)cc2CC1C(=O)O (centres undefined)"
category_label = "met"

[[record]]
compound = "Cc1nn(C)cc1-c1ccnc(NCc2nc(-c3ccccc3)no2)n1"
category_label = "not met"

[[record]]
compound = "CC#C[C@@]1(O)CC[C@H]2[C@@H]3CCC4=CC(=O)CCC4=C3C(c3ccc(N(C)C)cc3)C[C@@]21C (some centres undefined)"
category_label = "not met"


hey, is z-score for CCC1OC(=O)C(C)C(OC2C[C@@](C)(OC)C(O)C(C)O2)C(C)C(OC2OC(C)CC(N(C)C)C2O)[C@](C)(OC)CC(C)C(=O)C(C)C(O)[C@]1(C)O (some centres undefined) lower than 0.6 or not?
met

hey, is z-score for COc1ccccc1-c1cc(Nc2cccc(CS(N)(=O)=O)c2)ncn1 lower than 0.6 or not?
met

hey, is z-score for CCCCNC(=O)[C@@H]1C[C@H](CN2CCOCC2)CN(Cc2ccc3ccccc3c2)C1 lower than 0.6 or not?
not met

hey, is z-score for CN1CCCC1CCNC(=O)c1cc(-c2ccccc2)cc(S(=O)(=O)N2CCSCC2)c1 (centres undefined) lower than 0.6 or not?
met

hey, is z-score for CC(=O)Nc1nc2c(s1)C(=O)NCCC2 lower than 0.6 or not?
met
